Protocol Conditions: in ethanol, 311.4 K
Measure: solubility (mole fraction)

entry_smiles=CCn1nc(C(=O)O)c(=O)c2cc3c(cc21)OCO3 recorded_measurement=8e-05

---

Protocol Conditions: in ethanol, 329.1 K
Measure: solubility (mole fraction)

entry_smiles=CCn1nc(C(=O)O)c(=O)c2cc3c(cc21)OCO3 recorded_measurement=0.00018

---

Protocol Conditions: in ethanol, 321.6 K
Measure: solubility (mole fraction)

entry_smiles=CCn1nc(C(=O)O)c(=O)c2cc3c(cc21)OCO3 recorded_measurement=0.00013

---

Protocol Conditions: in water, 340.7 K
Measure: solubility (mole fraction)

compound="CCn1cc(C(=O)O)c(=O)c2cc(F)c(N3CCNC(C)C3)c(F)c21.Cl (stereo unspecified)" recorded_measurement=0.00138
